- system: human AR (Homo sapiens)
- Construct: expressed in transfected cells; host or cells: CV-1 cells (African green monkey kidney fibroblasts), transient calcium phosphate transfection
- Sequence (P10275 whole entry): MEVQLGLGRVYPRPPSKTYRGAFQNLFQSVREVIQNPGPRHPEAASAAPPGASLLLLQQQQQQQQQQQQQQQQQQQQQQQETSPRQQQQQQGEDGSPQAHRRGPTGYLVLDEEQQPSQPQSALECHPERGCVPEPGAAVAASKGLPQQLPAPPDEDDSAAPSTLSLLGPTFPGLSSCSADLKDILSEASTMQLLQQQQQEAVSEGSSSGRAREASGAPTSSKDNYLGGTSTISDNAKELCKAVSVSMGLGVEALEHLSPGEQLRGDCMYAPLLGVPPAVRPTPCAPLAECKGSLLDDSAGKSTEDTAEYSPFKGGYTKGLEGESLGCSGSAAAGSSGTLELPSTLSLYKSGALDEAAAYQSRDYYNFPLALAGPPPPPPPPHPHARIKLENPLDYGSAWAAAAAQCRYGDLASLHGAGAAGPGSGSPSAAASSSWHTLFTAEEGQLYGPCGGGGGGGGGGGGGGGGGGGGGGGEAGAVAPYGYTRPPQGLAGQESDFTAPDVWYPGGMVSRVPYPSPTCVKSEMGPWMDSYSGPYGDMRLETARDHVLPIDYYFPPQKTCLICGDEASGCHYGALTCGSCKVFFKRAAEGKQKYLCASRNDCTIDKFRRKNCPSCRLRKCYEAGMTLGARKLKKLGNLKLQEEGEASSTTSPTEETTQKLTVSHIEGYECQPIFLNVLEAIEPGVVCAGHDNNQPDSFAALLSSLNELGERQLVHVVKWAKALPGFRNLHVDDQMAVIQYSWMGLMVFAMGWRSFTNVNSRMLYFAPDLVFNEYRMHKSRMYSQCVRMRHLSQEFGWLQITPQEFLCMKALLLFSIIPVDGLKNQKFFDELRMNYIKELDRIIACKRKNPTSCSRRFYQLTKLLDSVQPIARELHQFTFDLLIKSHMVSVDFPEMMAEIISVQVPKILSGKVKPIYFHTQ
- run description: cell-based
- Assay type: cell-based
- reported conditions: % of maximal inhibition, fixed DHT at EC50; na = not active
Everything with AR Antagonist CV-1 Cells Efficacy (%) lower than 80% is not fulfilled; everything else, including exactly 80%, is fulfilled.

CC1=CC(C)(C)Nc2cc3[nH]c(=O)c(F)c(C(F)(F)F)c3cc21 ... not fulfilled
CC1CC(C)(C)Nc2cc3[nH]c(=O)c(F)c(C(F)(F)F)c3cc21 (centres unmarked) ... not fulfilled
CCC1(CC)CCc2cc3c(C(F)(F)F)c(F)c(=O)[nH]c3cc2N1 ... not fulfilled

Is the recorded value of AR Antagonist CV-1 Cells Efficacy (%) equal to or greater than 80% for this compound? CC1=CC(C)(C)Nc2c1cc1c(C(F)(F)F)c(F)c(=O)[nH]c1c2C
fulfilled

Please check the record CN1c2cc3c(cc2CCC1(C)C)c(C(F)(F)F)c(F)c(=O)n3C and state if its AR Antagonist CV-1 Cells Efficacy (%) is at or above 80%.
fulfilled

hey, is AR Antagonist CV-1 Cells Efficacy (%) for this one >= 80%? CC1CC(C)(C)n2oc(=O)c3c4[nH]c(=O)cc(C(F)(F)F)c4cc1c32 (centres unmarked)
not fulfilled

Given Cc1c2c(cc3c(C(F)(F)F)c(F)c(=O)[nH]c13)C(C)CC(C)(C)N2 (centres unmarked) , state whether its AR Antagonist CV-1 Cells Efficacy (%) is at least 80%.
fulfilled

# credit: patent EP0918774B9
